Source of measurements: patent US5459063A

Target: calf thymus/mouse ribonucleotide reductase (mammalian RR) (Bos taurus, UniProt Q32LP1)
Test: biochemical
Details: IC50 on mammalian RR activity, Example 54 text; peptide bound to purified calf thymus R1 before adding recombinant mouse R2
Ends that are not written are not given here.
measure: pIC50
Hey, just a heads up that pIC50 is the negative log base 10 of the concentration in molar.

Q: Please report the measured pIC50 for Ac-FCLNTEF [Ac-(SEQ ID NO:7), Ac- (FCLNTEF)] tested on calf thymus/mouse ribonucleotide reductase (mammalian RR) (Bos taurus, UniProt Q32LP1).
A: 3.80

====

Biological target: calf thymus/mouse ribonucleotide reductase (mammalian RR) (Bos taurus, UniProt Q32LP1)
Test: biochemical
Ends that are not written are not given here.
measure: IC50

Q: Output IC50 of Ac-FTLDAAF [Peptide 23, Ac- (FTLDAAF)]
A: 34 to 35 µM

Q: Could you please provide reported IC50 for Ac-FTLDALF [Peptide 22, Ac- (FTLDALF)] ? Thanks!
A: 29 to 30 µM

Q: Return reported IC50. Input substance: Ac-FALDADF [Peptide 12, Ac- (FALDADF)]
A: 35 to 40 µM

Q: Fill in reported IC50 for this entry: Ac-FTLDAEF [Peptide 20, Ac- (FTLDAEF)]
A: 450 to 620 µM

Q: Identify measured IC50 associated with Ac-FTLDANF [Peptide 21, Ac- (FTLDANF)]
A: 32 to 38 µM

====

Target: calf thymus/mouse ribonucleotide reductase (mammalian RR) (Bos taurus, UniProt Q32LP1)
Assay: biochemical
pIC50: −log10 of the molar value. Ends that are not written are not given here.
Reported pIC50 values are given for each entry in this list.

- substance: "Ac-FTLDADF [Peptide 4, Ac- (FTLDADF), reference compound]"
  pIC50: "4.70 to 5.10"

Q: Name the recorded pIC50 of the item Ac-FTLDGDF [Peptide 18, Ac- (FTLDGDF)] in your answer.
A: 3.64 to 3.96

====

Molecular target: calf thymus/mouse ribonucleotide reductase (mammalian RR) (Bos taurus, UniProt Q32LP1)
Sequence (Q32LP1 1-791): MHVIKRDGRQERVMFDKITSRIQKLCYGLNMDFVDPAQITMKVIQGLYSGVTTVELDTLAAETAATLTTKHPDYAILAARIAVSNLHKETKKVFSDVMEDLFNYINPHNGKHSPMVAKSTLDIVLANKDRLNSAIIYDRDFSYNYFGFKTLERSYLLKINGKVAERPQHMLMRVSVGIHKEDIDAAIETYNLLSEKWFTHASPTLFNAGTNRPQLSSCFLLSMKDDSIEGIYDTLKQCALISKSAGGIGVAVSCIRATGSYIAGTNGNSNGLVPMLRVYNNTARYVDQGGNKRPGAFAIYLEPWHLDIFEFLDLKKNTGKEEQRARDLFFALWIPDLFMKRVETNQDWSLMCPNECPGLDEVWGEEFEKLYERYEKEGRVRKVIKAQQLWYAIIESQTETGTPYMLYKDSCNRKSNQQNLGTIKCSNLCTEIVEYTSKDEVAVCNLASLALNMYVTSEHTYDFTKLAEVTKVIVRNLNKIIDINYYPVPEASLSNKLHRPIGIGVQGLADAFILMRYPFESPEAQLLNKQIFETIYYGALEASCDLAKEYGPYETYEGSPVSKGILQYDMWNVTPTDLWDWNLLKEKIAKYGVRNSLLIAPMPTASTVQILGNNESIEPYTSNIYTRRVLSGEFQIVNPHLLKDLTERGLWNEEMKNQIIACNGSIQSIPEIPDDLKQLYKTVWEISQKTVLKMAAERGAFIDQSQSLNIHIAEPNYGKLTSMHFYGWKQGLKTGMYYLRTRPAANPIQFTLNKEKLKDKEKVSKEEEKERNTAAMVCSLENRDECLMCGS
Assay: biochemical
Conditions: Table 4; 100 × (IC50 Ac(FTLDADF)/IC50 peptide analog); mammalian RR
Source text: From two to four assays were run
Ends that are not written are not given here.
measure: Percent RI (percent relative inhibitory potency)

Reference set (8 entries):
- substance: "Ac-FTLDADL [Peptide 24, Ac- (FTLDADL)]"
  endpoint_result: "< 3%"
- substance: "FTLDADF [Peptide 5, FTLDADF]"
  endpoint_result: "< 3%"
- substance: "Ac-LTLDADF [Peptide 8, Ac- (LTLDADF)]"
  endpoint_result: "< 3%"
- substance: "Ac-TLDADF [Peptide 6, Ac- (TLDADF)]"
  endpoint_result: "< 3%"
- substance: "Ac-FTLNADF [Peptide 16, Ac- (FTLNADF)]"
  endpoint_result: "40 ± 2.4%"
- substance: "SFTLDADF [Peptide 3]"
  endpoint_result: "25%"
- substance: "Ac-FTVDADF [Peptide 13, Ac- (FTVDADF)]"
  endpoint_result: "35%"
- substance: "Ac-FSLDADF [Peptide 11, Ac- (FSLDADF)]"
  endpoint_result: "25 ± 1.1%"

Q: Provide measured Percent RI (percent relative inhibitory potency) on calf thymus/mouse ribonucleotide reductase (mammalian RR) (Bos taurus, UniProt Q32LP1) for Ac-FTLDDF [Peptide 26, Ac- (FTLDDF)] please.
A: 3%

Q: Tell me Percent RI (percent relative inhibitory potency) of Ac-NSFTLDADF [Peptide 1] when tested on calf thymus/mouse ribonucleotide reductase (mammalian RR) (Bos taurus, UniProt Q32LP1).
A: 100%

Q: System calf thymus/mouse ribonucleotide reductase (mammalian RR) (Bos taurus, UniProt Q32LP1). Read-out Percent RI (percent relative inhibitory potency). Item Ac-FTLDADFAA [Peptide 28] . Report value.
A: 2.1%
